assay.target: Dvl2PDZ (Homo sapiens)
Construct: protein fragments spanning amino acids 248-364 of the full-length Dvl2 were produced; made in house; host or cells: E. coli (pGEX system)
method.notes: Competition ELISA, peptides binding to Dvl2PDZ
No end group written: not given here.
assay.readout: IC50 (µM)

I = Ac-KGFGML-OH [Peptide D5, K G F G M L]
II = Ac-KWYGWF [Peptide D2, K W Y G W F]
Task: Lab note: record which item had the higher IC50, I or II . Reply briefly: the label of your chosen item.
Result: I

====

assay.target: Dvl2PDZ (Homo sapiens, UniProt O14641)
Construct: protein fragments spanning amino acids 248-364 of the full-length Dvl2 were produced; made in house; host or cells: E. coli (pGEX system)
Sequence (O14641 248-364): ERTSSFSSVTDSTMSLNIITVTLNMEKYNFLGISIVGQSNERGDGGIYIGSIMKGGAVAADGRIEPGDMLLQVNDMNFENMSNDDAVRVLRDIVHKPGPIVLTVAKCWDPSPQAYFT
method.notes: Fluorescence polarization assay, peptides binding to Dvl2PDZ
measurement.parameters: competition with 10 nM FAM-KWYGWL-COOH probe, 1 μM Dvl2PDZ; read-out: Ki measured by Flourescence polarization assay
assay.readout: pKi
The quantity pKi is defined as the negative base-10 logarithm of the molar concentration.

Task: Given Ac-KWYGWL-OH [Peptide D1, K W Y G W L] , respond with its pKi.
Result: 6.14
